Below, each entry is listed alongside its reported %Inh.
test system: GSK3A; conditions: concentration: 1 μM, replicates: in singlicate; n = 1;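 also: KINOMEscan kinase panel screen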
Note: state the figure and append the unit.

Some compounds with recorded %Inh:
COc1cccc(C2=C(Nc3cccc(C(=O)O)c3)C(=O)NC2=O)c1 = 51%
FC(F)(F)c1ccc(-c2ncn(CCCN3CCOCC3)c2-c2ccncc2)cc1 = 0%
COc1cc2nccc(Nc3cccc(Oc4ccccc4)c3)c2cc1OC.Cl = 5%

Reported %Inh for Cc1nnc(-c2ccc3ncn(-c4ccc(S(C)=O)cc4)c3c2)o1 (stereo not drawn) : what is it? 74%

Now the same for `CCC(=O)c1c(-c2ccccc2)c2cc(Cl)ccc2c(=O)n1Cc1cc(S(C)(=O)=O)n(CCC(C)(C)O)n1` 0%

Now the same for `CN1C(=O)C(Nc2cc(Cl)c(O)c(Cl)c2)=C(c2ccc(Cl)cc2)C1=O` 0%

Now the same for `Cl.NS(=O)(=O)c1cccc(Nc2cc(-c3ccc(F)cc3)n[nH]2)c1` 0%

Now the same for `Cc1c(Cn2c(C)nn3c(=O)cc(N4CCO[C@H](C)C4)nc23)cccc1C(F)(F)F` 13%

Now the same for `COc1ccc(-c2cc3c(C)nc(N)nc3n([C@H]3CC[C@H](O)CC3)c2=O)cn1` 0%

Now the same for `Nc1ncnc2c1ncn2-c1cccc2ccccc12` 8%

Now the same for `CCC(=O)c1c(-c2ccccc2)c2cc(Cl)ccc2c(=O)n1Cc1cc(S(C)(=O)=O)n(CC(N)=O)n1` 6%

Now the same for `O=C1NC(=O)C(c2ccccc2)=C1Nc1cccc(O)c1` 30%

Now the same for `COc1cc(OC)cc(-c2cc3cnc(N)nc3nc2NC(=O)NC(C)(C)C)c1` 0%

Now the same for `CN1C(=O)C(Nc2ccccc2)=C(c2ccccc2)C1=O` 9%

Now the same for `Fc1cccc(CSc2nnc(-c3ccc4c(c3)CCO4)o2)c1` 64%

Now the same for `COc1cc2ncn(-c3cc(OCc4ccc(S(C)(=O)=O)cc4)c(C(N)=O)s3)c2cc1OC` 3%

Now the same for `CCc1nc(-c2cccc(C)c2)c(-c2ccncc2)s1` 27%

Now the same for `Nc1ncnc2c1ncn2-c1ccc(Cl)cc1` 14%

----------
tested on: TEC; conditions: concentration: 1 μM, replicates: in singlicate; n = 1
Below, each entry is listed alongside its reported %Inh.
Note: state the figure and append the unit.

Some compounds with recorded %Inh:
FC(F)(F)c1ccc(-c2ncn(CCCN3CCOCC3)c2-c2ccncc2)cc1 [SB-217780] = 3%
Nc1ncnc2c1ncn2-c1cccc2ccccc12 [SKF-97184] = 0%

Reported %Inh for CCn1c(-c2ccoc2)nc2cnccc21 [SB-733887] : what is it? 16%

----------
tested on: ABL2; details: concentration: 1 μM, replicates: in singlicate; n = 1
Would you mind labelling by %Inh? At or over 6% is yes (1), under is no (0).

Examples from the recorded data:
Nc1ncnc2c1ncn2-c1cccc(F)c1 [SKF-97560] = yes (1)
COc1cc2ncn(-c3cc(OCc4ccncc4Br)c(C(N)=O)s3)c2cc1OC [GW854278] = no (0)
COc1cc2nccc(Nc3cccc(Oc4ccccc4)c3)c2cc1OC.Cl [GW284543] = yes (1)
COc1ccc(Nc2nccc(N3CCC(NS(=O)(=O)c4ccc(NC(C)=O)cc4)C3)n2)cc1 (centres unmarked) [GSK1379729] = yes (1)
COc1cc(OC)cc(-c2cc3cnc(N)nc3nc2NC(=O)NC(C)(C)C)c1 = no (0)
COc1ccc(-n2cnc3c(N)ncnc32)cc1 [SKF-97236] = yes (1)

Next, consider the following molecule.
Does `Fc1cccc(CSc2nnc(-c3ccc4c(c3)CCO4)o2)c1` have a reported %Inh of at least 6%? yes (1)
